target.or.test.system: T7 RNA polymerase (Enterobacteria phage T7)
Sequence (P00573 whole entry): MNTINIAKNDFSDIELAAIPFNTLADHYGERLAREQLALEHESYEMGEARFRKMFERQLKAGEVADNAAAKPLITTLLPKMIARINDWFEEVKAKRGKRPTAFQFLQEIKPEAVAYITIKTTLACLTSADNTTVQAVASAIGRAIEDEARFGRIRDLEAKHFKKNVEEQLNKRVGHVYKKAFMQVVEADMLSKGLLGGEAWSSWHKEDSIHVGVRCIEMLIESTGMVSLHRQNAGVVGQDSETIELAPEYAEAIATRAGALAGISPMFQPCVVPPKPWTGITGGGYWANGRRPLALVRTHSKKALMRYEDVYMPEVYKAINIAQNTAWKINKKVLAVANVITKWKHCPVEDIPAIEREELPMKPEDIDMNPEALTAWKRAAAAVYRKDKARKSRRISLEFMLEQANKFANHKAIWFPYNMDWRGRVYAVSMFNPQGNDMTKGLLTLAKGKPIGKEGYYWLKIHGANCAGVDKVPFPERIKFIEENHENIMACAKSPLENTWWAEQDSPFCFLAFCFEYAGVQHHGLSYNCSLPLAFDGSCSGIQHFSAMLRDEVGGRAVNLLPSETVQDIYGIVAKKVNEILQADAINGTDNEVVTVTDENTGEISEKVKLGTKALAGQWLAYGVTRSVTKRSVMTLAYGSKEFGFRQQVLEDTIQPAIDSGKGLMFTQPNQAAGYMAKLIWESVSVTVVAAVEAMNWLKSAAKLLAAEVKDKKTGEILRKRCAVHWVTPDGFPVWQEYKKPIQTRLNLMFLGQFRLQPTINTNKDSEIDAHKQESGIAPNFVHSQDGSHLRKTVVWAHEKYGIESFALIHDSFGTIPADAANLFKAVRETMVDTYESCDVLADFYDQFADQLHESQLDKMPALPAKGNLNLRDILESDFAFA
method.description: Inhibition of T7 RNA polymerase assessed as reduction in RNA product formation using double stranded DNA as substrate after 4 hrs in presence of NTPs by sybrGOLD staining based fluorescence assay (reference value: 100%)
Measured IC50 of individual entries
measured.attribute: IC50

O=c1nc(OCc2ccccc2[N+](=O)[O-])ccn1[C@@H]1O[C@H](COP(=O)(O)OP(=O)(O)OP(=O)(O)O)[C@@H](O)[C@H]1O: 5 mM
Nc1nc(OCc2ccccc2[N+](=O)[O-])c2ncn([C@@H]3O[C@H](COP(=O)(O)OP(=O)(O)OP(=O)(O)O)[C@@H](O)[C@H]3O)c2n1: 5 mM
